molecular target: Estrogen receptor (Homo sapiens); assay: qHTS assay to identify small molecule antagonists of the estrogen receptor alpha (ER-alpha) signaling pathway (AID 743069); conditions: HEK293 ER-alpha-UAS-bla, beta-lactamase ratio, antagonist mode; series mostly up to 69.4 µM
Results filed as inconclusive are left out. The source made the active and inactive calls. Calls come from the whole dose curve; as a rule, active = well fitted curve in the direction sought with a large enough effect in the signal ratio in the repeat runs (not every such curve was filed as active); inconclusive = weak or mixed curves, or effect the other way; inactive = no such curve, though single readings can be large or run the other way; the % refers to the signal ratio.
assayReadout: outcome

- molecule: "CN[C@H]1CCc2cc(OC)c(OC)c(OC)c2-c2ccc(OC)c(=O)cc21"
  measurement: "inactive"
- molecule: "CC(=O)O[C@H]1CC[C@@]2(C)C(=CC[C@@H]3[C@@H]2CC[C@]2(C)C(c4cccnc4)=CC[C@@H]32)C1"
  measurement: "inactive"
- molecule: "O.O=C([O-])CC([S-])C(=O)[O-].[Au+].[Na+].[Na+] (stereo not given)"
  measurement: "inactive"
- molecule: "COc1ccc(C[C@H](C)NC[C@@H](O)c2ccc(O)c(NC=O)c2)cc1"
  measurement: "inactive"
- molecule: "CCC(Oc1ccccc1)C(=O)N[C@@H]1C(=O)N2[C@@H]1SC(C)(C)[C@@H]2C(=O)O (stereo not given in full)"
  measurement: "inactive"
